Each recorded value in this set is attributed to patent US20240408169A1.

Overview of recorded pIC50 for various molecules
# experimental-target: CyclinA2/CDK2 (Homo sapiens)
# Construct: purchased CRELUX Protein Services
# test: Fluorescence Polarization (FP) competitive binding assay, Cyclin A2/Cdk2;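 further: plates equilibrated two hours at room temperature before polarization reading, IC50 fitted from eight-concentration compound titration curves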
# experimental-parameters: 8 nM Cyclin A2/Cdk2, 2 nM FAM probe; average of 2-3 independent experiments; read-out: Cyclin A FP IC50
pIC50: −log10 of the molar value. *1 amine or outer side, *2 acyl side, *3 side chain or, on linkers, in order; H or OH if unused. Where a SMILES comes first, the peptide text is derived from it. Bridges are numbered along the chain shown (N, C = ends). [ ]: non-standard residue; d: D form. The star is where a group is joined. X34 = CN1CC(N2CCN(c3ccc(-c4ccc(Cl)cc4C[C@@H](C(=O)[*:2])N(C)[*:1])cc3)CC2)C1; X63 = CC(C)N1CCN(c2ccc(-c3ccc(Cl)cc3C[C@@H](C(=O)[*:2])N(C)[*:1])cc2F)CC1; X40 = CN1CCN(Cc2ccc(-c3ccc(Cl)cc3C[C@@H](C(=O)[*:2])N(C)[*:1])cc2)CC1; X171 = CC(=O)N1CC=C(c2ncc(Cl)cc2C[C@@H](C(=O)[*:2])N(C)[*:1])CC1; X172 = CC(=O)N1CC=C(c2ccc(F)cc2C[C@@H](C(=O)[*:2])N(C)[*:1])CC1; NMehhhLys(Me) = CN([C@@H](CCCCCCCN(C)[*:3])C(=O)[*:2])[*:1]; X15 = CN([C@@H](Cc1cc(Cl)ccc1-c1cnn2c1CCC2)C(=O)[*:2])[*:1]; NMe(hhhLys) = CN([C@@H](CCCCCCCN[*:3])C(=O)[*:2])[*:1]; cBuCO(3,3-F2-1-CF3) = O=C(C1(C(F)(F)F)CC(F)(F)C1)*; Pro(trans-4-F) = O=C(O)[C@@H]1C[C@@H](F)CN1; Gly(cPr) = N[C@H](C(=O)O)C1CC1
recorded-metric: pIC50

molecule	recorded-metric	observed
CC(=O)N1CC=C(c2ccc(F)cc2C[C@H]2C(=O)NCCCCCCC[C@H](N(C)C(=O)[C@@H](NC(=O)[C@@H]3C[C@@H](F)CN3C(=O)C3(C(F)(F)F)CC(F)(F)C3)C3CC3)C(=O)N[C@@H](CC(C)C)C(=O)N2C)CC1 [Example 217] ({cBuCO(3,3-F2-1-CF3)}-[Pro(trans-4-F)][Gly(cPr)][NMe(hhhLys)]L[X172]; lactam 3-C)	pIC50	7.52
CC(C)C[C@@H]1NC(=O)[C@@H](N(C)C(=O)[C@@H](NC(=O)[C@@H]2C[C@@H](F)CN2C(=O)C2(C(F)(F)F)CC(F)(F)C2)C2CC2)CCCCCCCN(C)C(=O)[C@H](Cc2cc(Cl)ccc2-c2ccc(N3CCN(C(C)C)CC3)c(F)c2)N(C)C1=O [Example 413] ({cBuCO(3,3-F2-1-CF3)}-[Pro(trans-4-F)][Gly(cPr)][NMehhhLys(Me)]L[X63]; lactam 3-C)	pIC50	7.70
CC(C)C[C@@H]1NC(=O)[C@@H](N(C)C(=O)[C@@H](NC(=O)[C@@H]2C[C@@H](F)CN2C(=O)C2(C(F)(F)F)CC(F)(F)C2)C2CC2)CCCCCCCN(C)C(=O)[C@H](Cc2cc(Cl)ccc2-c2ccc(N3CCN(C4CN(C)C4)CC3)cc2)N(C)C1=O [Example 383] ({cBuCO(3,3-F2-1-CF3)}-[Pro(trans-4-F)][Gly(cPr)][NMehhhLys(Me)]L[X34]; lactam 3-C)	pIC50	7.70
CC(C)C[C@@H]1NC(=O)[C@@H](N(C)C(=O)[C@@H](NC(=O)[C@@H]2C[C@@H](F)CN2C(=O)C2(C(F)(F)F)CC(F)(F)C2)C2CC2)CCCCCCCN(C)C(=O)[C@H](Cc2cc(Cl)ccc2-c2ccc(CN3CCN(C)CC3)cc2)N(C)C1=O [Example 360] ({cBuCO(3,3-F2-1-CF3)}-[Pro(trans-4-F)][Gly(cPr)][NMehhhLys(Me)]L[X40]; lactam 3-C)	pIC50	7.70
CC(C)C[C@@H]1NC(=O)[C@@H](N(C)C(=O)[C@@H](NC(=O)[C@@H]2C[C@@H](F)CN2C(=O)C2(C(F)(F)F)CC(F)(F)C2)C2CC2)CCCCCCCN(C)C(=O)[C@H](Cc2cc(Cl)ccc2-c2cnn3c2CCC3)N(C)C1=O [Example 190] ({cBuCO(3,3-F2-1-CF3)}-[Pro(trans-4-F)][Gly(cPr)][NMehhhLys(Me)]L[X15]; lactam 3-C)	pIC50	7.70
CC(=O)N1CC=C(c2ncc(Cl)cc2C[C@H]2C(=O)NCCCCCCC[C@H](N(C)C(=O)[C@@H](NC(=O)[C@@H]3C[C@@H](F)CN3C(=O)C3(C(F)(F)F)CC(F)(F)C3)C3CC3)C(=O)N[C@@H](CC(C)C)C(=O)N2C)CC1 [Example 302] ({cBuCO(3,3-F2-1-CF3)}-[Pro(trans-4-F)][Gly(cPr)][NMe(hhhLys)]L[X171]; lactam 3-C)	pIC50	7.30
